System: wheat germ agglutinin (Triticum aestivum), Alexa647-labelled
Experiment: wheat germ agglutinin binders on compound microarrays, profiling panel, artefact control for SMM control-protein annotation, biochemical, small-molecule microarray, 635/667 nm fluorescence (AID 1140);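 note: score merges 667 nm feature emission with signal to noise over triplicate slides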
Conditions: WGA-A647 binding, 635 nm fluorescence, higher = more signal
Kindly return class 1 if reported composite z-score is no lower than 0.8; return class 0 if it is lower.

Past entries and their recorded results:
Q) Does COC(=O)C(CC#Cc1ccc2c(c1)[C@]1(C(=O)N2)[C@H](C(=O)NC[C@H](O)c2ccccc2)[C@H]2C(=O)O[C@H](c3ccccc3)[C@H](c3ccccc3)N2[C@@H]1c1ccc(OCCO)cc1)C(=O)OC have a reported composite z-score of at least 0.8?
A) class 1

Q) Does CCCNC(=O)[C@@]1(c2ccc([N+](=O)[O-])cc2)CC(=O)N(CC23CC4CC(CC(C4)C2)C3)[C@@H]1c1ccc(CO)cc1 have a reported composite z-score of at least 0.8?
A) class 0

Q) Does COCCOC(=O)N1C(=O)[C@@]2(c3cc(C#CCC(C(=O)OC)C(=O)OC)ccc31)[C@H](C(=O)N1CCN(c3ncccn3)CC1)[C@H]1C(=O)O[C@H](c3ccccc3)[C@H](c3ccccc3)N1[C@@H]2c1ccc(OCCO)cc1 have a reported composite z-score of at least 0.8?
A) class 1

Proceed to the following item.
Q) Does C[N+](C)(C)CCCCCCNC(=O)[C@H]1C[C@H]2C(=O)N3CCC[C@H]3C(=O)N2[C@H]1c1ccc(O)cc1 have a reported composite z-score of at least 0.8?
A) class 0

* * *

Assay: binders from COS7 lysate, DM2A8 probe, primary screen, torsin A project, cell lysate, small-molecule microarray, fluorescence 635/667 (AID 1065)
Conditions: higher = more signal, COS7 lysate expressing mutant human TOR1A
Measured composite z-score values are reported for all entries that follow.
In your answer, state the number alone without any accompanying words.

Example compounds with recorded composite z-score:
Note to self: composite z-score recorded for COc1c(C)cc(-c2cc3c(c(-c4ccc(Oc5ccccc5)cc4)n2)[Si](C(C)C)(C(C)C)OC3)cc1C was -0.0685

Note to self: composite z-score recorded for O=C1O[C@@H](c2ccccc2)[C@@H](c2ccccc2)N2[C@@H](c3ccc(OCCO)cc3)[C@]3(C(=O)Nc4ccccc43)[C@@H](C(=O)Nc3nc4ccccc4s3)[C@H]12 was 0.58

Note to self: composite z-score recorded for CCOc1cc(C(O)C2C=CC3C(=O)N(c4ccccc4)C(=O)C3N2Nc2ccc([N+](=O)[O-])cc2)ccc1O (centres undefined) was 0.23

***
Note to self: composite z-score recorded for CC(C)C[C@@H]1NC(=O)[C@@H]2C[C@H](C(=O)NCCCCCC[N+](C)(C)C)[C@H](c3ccc(O)cc3)N2C1=O was 0.349

* * *

Measured composite z-score values are reported for all entries that follow.
Molecular target: Left-right determination factor 2 (Homo sapiens) (UniProt O00292)
Sequence (O00292 whole entry, looked up): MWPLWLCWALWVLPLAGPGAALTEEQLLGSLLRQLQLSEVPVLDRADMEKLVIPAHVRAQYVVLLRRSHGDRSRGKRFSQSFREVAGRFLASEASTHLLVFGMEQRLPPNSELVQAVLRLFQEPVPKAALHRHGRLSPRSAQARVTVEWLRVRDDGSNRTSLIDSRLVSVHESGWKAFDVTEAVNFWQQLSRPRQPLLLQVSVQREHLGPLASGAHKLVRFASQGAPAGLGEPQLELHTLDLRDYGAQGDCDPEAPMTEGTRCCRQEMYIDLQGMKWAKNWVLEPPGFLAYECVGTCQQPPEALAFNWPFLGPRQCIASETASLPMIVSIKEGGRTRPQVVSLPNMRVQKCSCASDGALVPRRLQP
Assay: LEFTY2 binders on small-molecule microarrays, primary screen, biochemical, small-molecule microarray, 635 nm fluorescence scan (AID 1110)
Conditions: LEFTY2 binding, higher = more signal
In your answer, state the number alone without any accompanying words.

Note to self: composite z-score recorded for CCOC(=O)[C@H]1C/C=C/C[C@H](C(=O)OCC)C(=O)O[C@H]2[C@@H](OC)O[C@H](CO)[C@@H](OC(=O)Nc3ccc4c(c3)OCO4)[C@@H]2OC1=O was -0.261

Note to self: composite z-score recorded for COCCOC(=O)N1C(=O)[C@@]2(c3cc(C#CCNC(N)=O)ccc31)[C@H](c1ccccc1OCCO)N1[C@H](c3ccccc3)[C@H](c3ccccc3)OC(=O)[C@H]1[C@@H]2C(N)=O was 0.54

Note to self: composite z-score recorded for O=C1C=CC(=O)[C@@H]2CC(COc3ccccc3)=C3[C@@H](CCc4ccccc4)OB(O)C[C@@H]3[C@H]12 was 0.41

* * *

Assay: binders of probe aFSTL3 on microarray, primary screen, stem cell growth factor project, biochemical, small-molecule microarray, fluorescence 635/667 (AID 1064);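 note: measures binding of the biotinylated anti-FSTL3 antibody to printed compounds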
Conditions: higher = more signal
Kindly return Met if reported composite z-score is no lower than -0.02; return Not met if it is lower.

Past entries and their recorded results:
Q) Does O=C1O[C@H](c2ccccc2)[C@H](c2ccccc2)N2[C@H]1[C@@H](C(=O)O)[C@]1(C(=O)Nc3ccc(C#CC4=CCCCC4)cc31)[C@H]2c1ccc(OCCO)cc1 have a reported composite z-score of at least -0.02?
A) Met

Q) Does N[C@@H](Cc1ccccc1)Cn1cc(-c2ccccc2)nn1 have a reported composite z-score of at least -0.02?
A) Met

Q) Does CCCCC(O)C1C=CC2C(=O)N(C3CCCCC3)C(=O)C2N1Nc1ccc(OC)cc1 (stereo not drawn) have a reported composite z-score of at least -0.02?
A) Not met

Q) Does C=CC[C@]1(C(=O)N2CCOCC2)N=C(c2ccc(OCCCO)cc2)O[C@H]1c1ccccc1 have a reported composite z-score of at least -0.02?
A) Met

***
Q) Does COc1ccc(NN2C(C(O)c3ccc(OC)c(OCc4ccccc4)c3)C=CC3C(=O)N(C4CCCCC4)C(=O)C32)cc1 (stereo not drawn) have a reported composite z-score of at least -0.02?
A) Met

Q) Does CCCCCCc1nc(CCCc2cc3c(c(CCCCCC)n2)[Si](C(C)C)(C(C)C)OC3)cc2c1[Si](C(C)C)(C(C)C)OC2 have a reported composite z-score of at least -0.02?
A) Met

Q) Does CCCN1C(=O)[C@]2(COC(c3ccc(OCCCO)cc3)=N2)Cc2ccccc21 have a reported composite z-score of at least -0.02?
A) Met

Q) Does CC(C)N1C(=O)[C@@]2(c3ccc([N+](=O)[O-])cc3)CC(=O)N(CC34CC5CC(CC(C5)C3)C4)[C@@H]2c2ccc(CO)cc21 have a reported composite z-score of at least -0.02?
A) Not met

* * *

Target: Albumin (Bos taurus) (UniProt P02769)
Sequence (P02769 whole entry, looked up): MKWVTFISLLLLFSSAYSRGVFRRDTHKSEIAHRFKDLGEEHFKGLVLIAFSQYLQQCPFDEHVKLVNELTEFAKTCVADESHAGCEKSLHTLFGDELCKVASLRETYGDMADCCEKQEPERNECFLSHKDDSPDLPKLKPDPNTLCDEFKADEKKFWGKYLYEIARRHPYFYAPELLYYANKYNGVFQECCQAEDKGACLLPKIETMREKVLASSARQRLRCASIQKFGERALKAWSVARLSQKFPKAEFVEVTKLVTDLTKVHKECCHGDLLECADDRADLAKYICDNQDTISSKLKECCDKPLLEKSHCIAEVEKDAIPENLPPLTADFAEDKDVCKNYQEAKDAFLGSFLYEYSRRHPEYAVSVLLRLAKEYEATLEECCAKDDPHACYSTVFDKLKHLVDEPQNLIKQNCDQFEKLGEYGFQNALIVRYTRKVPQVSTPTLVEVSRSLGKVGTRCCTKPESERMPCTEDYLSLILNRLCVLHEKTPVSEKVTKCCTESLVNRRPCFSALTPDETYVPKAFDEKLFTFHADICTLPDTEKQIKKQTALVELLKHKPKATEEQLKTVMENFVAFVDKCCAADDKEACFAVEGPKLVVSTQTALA
Experiment: bovine serum albumin binders on microarray, profiling panel, artefact control for SMM control protein annotation, biochemical, small-molecule microarray, Alexa647 label, 635/667 nm fluorescence (AID 1118);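 note: score merges 667 nm emission intensity and signal-to-noise per printed compound spot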
Conditions: BSA-A647 binding, fluorescence 635 nm, higher = more signal
Measurement type: composite z-score
In your answer, state the number alone without any accompanying words.

Note to self: composite z-score recorded for CC(C)(C)OC(=O)CC[C@@]1(C(=O)O)N=C(c2ccc(OCCCO)cc2)O[C@@H]1c1ccccc1N=[N+]=[N-] was 0.933

***
Note to self: composite z-score recorded for COCCOC(=O)N1C(=O)[C@@]2(c3cc(C#CCNC(N)=O)ccc31)[C@H](c1ccc(O)cc1)N1[C@H](c3ccccc3)[C@H](c3ccccc3)OC(=O)[C@H]1[C@@H]2C(=O)NC[C@H](O)c1ccccc1 was -0.302

Note to self: composite z-score recorded for CCCCCN1CC=CC23O[C@@H]4/C=C\CCC(C)OC(=O)C4[C@H]2C(=O)N(CCCCCO)[C@@H]3C1=O (stereo partly specified) was -0.299

Note to self: composite z-score recorded for COc1ccc([Si](C)(C)[C@@H]2[C@@H](CC(=O)N(CCO)Cc3ccccc3)O[C@]3(C(=O)N(C)c4ccccc43)[C@H]2C)cc1 was 0.751

Note to self: composite z-score recorded for C=CC(=C)C1=CCO[C@@H]1[C@H]1CCCN1S(=O)(=O)c1ccccc1[N+](=O)[O-] was 0.656

Note to self: composite z-score recorded for NC(=O)NCC#Cc1ccc2c(c1)[C@]1(C(=O)N2)[C@H](C(=O)N2CCCCCCC2)[C@H]2C(=O)O[C@H](c3ccccc3)[C@H](c3ccccc3)N2[C@@H]1c1ccc(OCCO)cc1 was -0.946

* * *

Experiment: MM1S myeloma cell viability, profiling panel, resazurin fluorescence, basal, 24 h, PK04 Diversity Set (AID 1174);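 note: MM1S multiple myeloma cell line; test concentration not given here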
Settings: higher = more signal, called active from +8 up or from −8 down
Measured z-score values are reported for all entries that follow.
In your answer, state the number alone without any accompanying words.

Example compounds with recorded z-score:
Note to self: z-score recorded for Cc1ccc([C@H]2[C@H](C(=O)O)[C@H](Sc3ccccc3)[C@@H](C(C)C)N2S(=O)(=O)c2ccc(C)cc2)cc1 was -0.498

Note to self: z-score recorded for N#Cc1ccc(NN2C(C(O)c3cccs3)C=CC3C(=O)N(c4ccccc4)C(=O)C32)cc1 (centres undefined) was 0.0171

***
Note to self: z-score recorded for COC(=O)c1c(CC[C@@H](CO)NC(=O)N[C@@H](Cc2ccccc2)Cn2cc(C3(O)CCCCC3)nn2)oc(C(C)=O)c1C(=O)OC was 1.37

Note to self: z-score recorded for [N-]=[N+]=Nc1ccccc1[C@@H]1OC(c2ccc(OCCCO)cc2)=N[C@]1(CCS(=O)(=O)c1ccccc1)C(=O)N1CCOCC1 was -0.638

* * *

Molecular target: Pro-neuregulin-1, membrane-bound isoform (Homo sapiens) (UniProt Q02297)
Sequence (Q02297 whole entry, looked up, canonical isoform): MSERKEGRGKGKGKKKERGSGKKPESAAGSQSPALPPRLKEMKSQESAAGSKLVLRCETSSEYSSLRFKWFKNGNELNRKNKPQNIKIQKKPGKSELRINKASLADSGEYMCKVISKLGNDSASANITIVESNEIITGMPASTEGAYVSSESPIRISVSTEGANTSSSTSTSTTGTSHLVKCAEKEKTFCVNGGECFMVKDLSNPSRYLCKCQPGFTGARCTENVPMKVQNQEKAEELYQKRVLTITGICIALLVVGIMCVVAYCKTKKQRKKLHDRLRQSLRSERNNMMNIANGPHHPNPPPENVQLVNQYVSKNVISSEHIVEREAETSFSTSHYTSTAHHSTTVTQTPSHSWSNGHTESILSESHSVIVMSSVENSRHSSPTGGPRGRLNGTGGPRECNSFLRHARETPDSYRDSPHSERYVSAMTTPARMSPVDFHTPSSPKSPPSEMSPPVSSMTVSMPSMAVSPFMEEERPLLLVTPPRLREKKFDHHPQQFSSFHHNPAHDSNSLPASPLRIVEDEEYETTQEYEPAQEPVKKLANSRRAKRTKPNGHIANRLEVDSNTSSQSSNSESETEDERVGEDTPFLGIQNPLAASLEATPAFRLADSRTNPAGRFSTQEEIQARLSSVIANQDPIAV
Experiment: NRG1 binders on small-molecule microarrays, primary screen, psychiatric disease protein project, biochemical, small-molecule microarray, fluorescence 635/667 (AID 1075);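 note: score combines 667 nm spot fluorescence with signal to noise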
Settings: NRG1 binding, 635 nm fluorescence, higher = more signal
Measured composite z-score values are reported for all entries that follow.

Note to self: composite z-score recorded for O=C1N(CCS(=O)(=O)c2ccccc2)c2ccccc2C[C@@]12COC(c1ccc(OCCCO)cc1)=N2 was 1.11

Note to self: composite z-score recorded for COCCOC(=O)N1C(=O)[C@@]2(c3cc(C#CCC(C(=O)OC)C(=O)OC)ccc31)[C@H](C(=O)N1CCCCCCC1)[C@H]1C(=O)O[C@H](c3ccccc3)[C@H](c3ccccc3)N1[C@@H]2c1ccc(OCCO)cc1 was 2.11

Note to self: composite z-score recorded for CN1C(=O)C2C(C1=O)C1C=C(CCCO)C2C(c2cccs2)N1C (centres undefined) was 0.822

Note to self: composite z-score recorded for CC(C)c1ccc(NN2C(C(O)c3cccc(O)c3)C=CC3C(=O)N(c4ccccc4)C(=O)C32)cc1 (centres undefined) was 1.97

Note to self: composite z-score recorded for Cc1cc(C)c(C(O)C2C=CC3C(=O)N(C)C(=O)C3N2Nc2ccccc2)c(C)c1 (centres undefined) was 1.26

***
Note to self: composite z-score recorded for COC(=O)[C@@]1(Cc2ccccc2)[C@H]2c3cc(C(=O)N(C)C)n(Cc4c(-c5ccccc5)noc4C)c3C[C@H]2CN1C(=O)c1ccccc1 was 1.81

Note to self: composite z-score recorded for CCOC(=O)C1=CCC(C(C)(C)C)N(S(=O)(=O)c2ccc(C)cc2)C1 (centres undefined) was 0.673

Note to self: composite z-score recorded for COc1ccc([Si](C)(C)[C@H]2[C@H](CCn3cc([C@H](O)c4ccccc4)nn3)O[C@@]3(C(=O)N(Cc4cccc(N5CCC5=O)c4)c4ccccc43)[C@@H]2C)cc1 was -0.0001

Note to self: composite z-score recorded for C=C(CCCC)C(=O)CC[C@H](OC(=O)c1cccnc1)c1cccc(OCCO)c1 was 0.941

Note to self: composite z-score recorded for COCCCNC(=O)[C@@]1(CCC(=O)OC(C)(C)C)N=C(c2ccc(OCCCO)cc2)O[C@H]1c1ccccc1CN=[N+]=[N-] was 1.59

Note to self: composite z-score recorded for O=c1oc(-c2ccccc2)nc2cc(Br)ccc12 was -0.0187

Note to self: composite z-score recorded for [N-]=[N+]=NCc1ccccc1C[C@@]1(C(=O)NCC(O)CO)N=C(c2ccc(OCCCO)cc2)O[C@@H]1c1ccccc1CN=[N+]=[N-] (some centres undefined) was 1.34
